- target.or.system: T1, HpRap1B (Hansenula polymorpha DL-1, UniProt W1QDN2 1-576)
- T1 sequence: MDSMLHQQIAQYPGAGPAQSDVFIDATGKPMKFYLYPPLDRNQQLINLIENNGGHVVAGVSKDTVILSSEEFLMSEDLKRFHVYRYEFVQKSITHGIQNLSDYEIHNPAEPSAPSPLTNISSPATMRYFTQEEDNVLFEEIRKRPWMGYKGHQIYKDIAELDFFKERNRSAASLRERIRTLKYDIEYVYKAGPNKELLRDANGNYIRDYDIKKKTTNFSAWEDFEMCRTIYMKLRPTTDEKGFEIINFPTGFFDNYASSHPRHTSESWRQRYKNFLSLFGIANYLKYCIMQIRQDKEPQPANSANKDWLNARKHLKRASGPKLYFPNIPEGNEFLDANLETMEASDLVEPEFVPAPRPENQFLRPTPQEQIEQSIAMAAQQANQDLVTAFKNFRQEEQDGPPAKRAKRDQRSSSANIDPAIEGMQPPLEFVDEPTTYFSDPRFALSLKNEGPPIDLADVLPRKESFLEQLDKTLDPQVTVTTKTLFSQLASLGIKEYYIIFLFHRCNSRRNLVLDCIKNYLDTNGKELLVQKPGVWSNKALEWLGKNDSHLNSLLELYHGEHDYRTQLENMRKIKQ
- procedure.details: SPR; kinetic fit; equilibrium Kd 1.7±0.2; SPR: 10 mM HEPES-NaOH pH 7.5, 150 mM NaCl, 0.5 mM DTT, 0.05% Tween 20, 1 mg/ml BSA, 0.02 mg/ml salmon sperm DNA; competition 2 nM protein with 20 or 200 nM competitor. EMSA: 20 mM HEPES-NaOH pH 7.5, 50 mM NaCl, 0.2 mg/ml BSA, 5% glycerol, 0.1 mg/ml salmon sperm DNA, room temperature
- experimental.setup: protein: recombinant; 3' overhang 20 nt on strand 2
readout.type: pKd
Please keep in mind that pKd is minus log10 of the molar concentration; only the number is needed.

Tell me the measured pKd of RPS0b (dsDNA) DNA 1: ATTTCTTGGTGCGAGGGGGCTCT DNA 2: AGAGCCCCCTCGCACCAAGAAATCCTCTACGTCCTCCTGCTCC , please.
8.82
